target: T1, Recombinant purified human PD-1 protein, residues Leu25-Thr168, with a C-terminal 6-His tag (human, UniProt Q15116); assay: SPR; Biacore 8K, flat chips (average of C1 and CMD-P); mAbs captured on goat anti-human IgG Fc; PD-1 His-tagged monomer analyte 0.4-100 nM; 25 C; HBS-EP+ pH 7.4; 1:1 Langmuir fit with mass transport; apparent; conditions: both partners purified
T1 construct: programmed cell death protein 1 (PD-1), human, residues Leu25-Thr168; monomer; the results call it wild-type or full length PD-1 against the P35-Q167 fragment; also called PD-1-His; PD-1 His-tagged monomer; source: bought: R&D Systems; not shown: His6, C-terminal, kept
T1 sequence (Q15116 25-168): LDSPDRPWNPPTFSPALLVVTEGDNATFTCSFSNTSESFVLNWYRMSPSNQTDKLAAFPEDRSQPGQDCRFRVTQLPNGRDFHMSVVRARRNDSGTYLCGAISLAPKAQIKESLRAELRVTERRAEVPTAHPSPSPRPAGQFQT
Consider the following binders; for each one, report its Kd.
Answers are plain numbers, in nM.

>>> observed("mAb03 (analog of tislelizumab) (antibody, V domains shown, VH; IgG4 heavy-chain constant region with stabilizing 226CPPC hinge; VL; IgG4 analog; source: HEK293 suspension cells, cotransfected, purified (Protein A)) VH: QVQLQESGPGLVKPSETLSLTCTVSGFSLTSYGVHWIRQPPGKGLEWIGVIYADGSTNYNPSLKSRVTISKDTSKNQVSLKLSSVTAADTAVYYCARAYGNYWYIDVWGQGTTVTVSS VL: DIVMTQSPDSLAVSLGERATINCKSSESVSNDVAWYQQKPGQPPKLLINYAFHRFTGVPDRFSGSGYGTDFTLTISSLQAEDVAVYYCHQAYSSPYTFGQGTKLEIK")
0.13

Now for a further binder.
Given item mAb17 (analog of camrelizumab) (antibody, V domains shown, VH; IgG4 heavy-chain constant region with stabilizing 226CPPC hinge; VL; IgG4 analog; source: HEK293 suspension cells, cotransfected, purified (Protein A)) VH: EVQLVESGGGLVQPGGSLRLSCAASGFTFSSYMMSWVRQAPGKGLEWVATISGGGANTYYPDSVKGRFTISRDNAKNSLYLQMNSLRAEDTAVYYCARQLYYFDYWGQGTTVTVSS VL: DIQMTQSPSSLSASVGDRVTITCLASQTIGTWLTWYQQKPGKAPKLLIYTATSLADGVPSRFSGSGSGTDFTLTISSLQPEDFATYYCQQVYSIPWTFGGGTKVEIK , the value recorded as its Kd is 2.4
